Ref: paper PMC5078989

# Tested on: panel of cancer cell lines
# assayProcedure: Cell viability (CellTiter-Glo) dose-response across cancer cell line panel;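 note: after 72 h compound incubation with CellTiter-Glo ATP readout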
# Assay type: cell-based, human
# runParameters: Homo sapiens, Hs 940.T
propertyName: EC50 (nM)
Could you give me the number in nM? Just the number is fine.

Prompt line: Item CC(C)C[C@H](NC(=O)[C@H](Cc1ccccc1)NC(=O)c1cnccn1)B(O)O : provide EC50
Response line: 3.97

====

# System: panel of cancer cell lines
# assayProcedure: Cell viability (CellTiter-Glo) dose-response across cancer cell line panel;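 note: after 72 h compound incubation with CellTiter-Glo ATP readout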
# Format: cell-based, human
# runParameters: Homo sapiens, NCI-H1975, cell line NCI-H1975
propertyName: EC50 (nM)
Could you give me the number in nM? Just the number is fine.

Prompt line: Item CC(C)C[C@H](NC(=O)[C@H](Cc1ccccc1)NC(=O)c1cnccn1)B(O)O : provide EC50
Response line: 9.64

====

# System: panel of cancer cell lines
# assayProcedure: Cell viability (CellTiter-Glo) dose-response across cancer cell line panel;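 note: after 72 h compound incubation with CellTiter-Glo ATP readout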
# Format: cell-based, human
# runParameters: Homo sapiens, JHH-4, JHH-4 cells
propertyName: EC50 (µM)
Could you give me the number in µM? Just the number is fine.

Prompt line: Item COCc1ccccc1NCc1ccc([C@@H]2[C@H](O)CCCc3cncn32)c(-c2ccccc2Cl)c1 : provide EC50
Response line: 16.2

====

# Tested on: panel of cancer cell lines
# assayProcedure: Cell viability (CellTiter-Glo) dose-response across cancer cell line panel;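 note: after 72 h compound incubation with CellTiter-Glo ATP readout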
# Format: cell-based, human
# runParameters: Homo sapiens, SH-4, SH-4
# Procedure: Next, we explored the effect of CSN5 inhibition on the viability of cancer cells. […] A standardized CellTiter-Glo Assay (Promega #G7570) based on the quantification of ATP was applied according to the manufacturer's protocol to measure the amount of viable cells in culture. […] EC50 values were calculated from the plot of percentage of inhibition versus inhibitor concentration using the nonlinear regression analysis software Origin 7.5SR6 (OriginLab Corp.).
// pEC50 lookup, one value per entry
FYI, pEC50 means -log10 of a concentration in mol per litre.

INSERT INTO measurements (molecule, numericvalue) VALUES
  ('COCc1ccccc1NCc1ccc([C@H]2[C@@H](O)CCCc3cncn32)c(-c2ccccc2Cl)c1 [CSN5i-2]', 6.37),
  ('NS(=O)(=O)OC[C@@H]1C[C@@H](n2ccc3c(N[C@H]4CCc5ccccc54)ncnc32)C[C@@H]1O [MLN4924]', 6.83);

Next, consider the following molecule.
Prompt line: Item CC(C)C[C@H](NC(=O)[C@H](Cc1ccccc1)NC(=O)c1cnccn1)B(O)O [Bortezomib] : provide pEC50
Response line: 8.34

====

# Tested on: panel of cancer cell lines
# assayProcedure: Cell viability (CellTiter-Glo) dose-response across cancer cell line panel;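 note: after 72 h compound incubation with CellTiter-Glo ATP readout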
# Type: cell-based, human
# runParameters: Homo sapiens, NCI-H2170, NCI-H2170 cells
# Protocol: Next, we explored the effect of CSN5 inhibition on the viability of cancer cells. […] A standardized CellTiter-Glo Assay (Promega #G7570) based on the quantification of ATP was applied according to the manufacturer's protocol to measure the amount of viable cells in culture. […] EC50 values were calculated from the plot of percentage of inhibition versus inhibitor concentration using the nonlinear regression analysis software Origin 7.5SR6 (OriginLab Corp.).
propertyName: pEC50
FYI, pEC50 means -log10 of a concentration in mol per litre.

Prompt line: Item COCc1ccccc1NCc1ccc([C@@H]2[C@H](O)CCCc3cncn32)c(-c2ccccc2Cl)c1 : provide pEC50
Response line: 4.98
